Tested on: MFM-223
experimental-protocol: normalised response (% of control), CellTiter-Glo; higher = more viable cells (100 = DMSO, 0 = benzethonium chloride kill control)
run-conditions: incubation time: 72 h
observed-property: normalised response (%)
One number for each entry, in %.

Below, each entry is followed by its recorded normalised response result.
compound	target-or-test-system	number
CC1(C)NC(=O)N(c2ccc([N+](=O)[O-])c(C(F)(F)F)c2)C1=O [Nilutamide] (1 nM)	MFM-223	103
Cc1ccc(C(=O)N(CCCN)[C@@H](c2oc3cc(Cl)ccc3c(=O)c2Cc2ccccc2)C(C)C)cc1 (10 nM)	MFM-223	90.2
COc1cc([C@@H]2c3cc4c(cc3[C@@H](O[C@@H]3O[C@@H]5CO[C@@H](C)O[C@H]5[C@H](O)[C@H]3O)[C@H]3COC(=O)[C@H]23)OCO4)cc(OC)c1O [Etoposide] (10 nM)	MFM-223	109
Clc1ccc(Nc2nnc(Cc3ccncc3)c3ccccc23)cc1 [Vatalanib] (1000 nM)	MFM-223	104
Cn1c(CCCC(=O)O)nc2cc(N(CCCl)CCCl)ccc21 [Bendamustine] (1000 nM)	MFM-223	111

# batch: return normalised response for each of the 8 compounds below
1. CC(=O)Nc1ccc(C(=O)Nc2ccccc2N)cc1 [Tacedinaline] (0.1 nM)
2. Cc1ccc(-n2nc(C(C)(C)C)cc2NC(=O)Nc2ccc(OCCN3CCOCC3)c3ccccc23)cc1 [Doramapimod] (1000 nM)
3. CN(C)/N=N/c1[nH]cnc1C(N)=O [Dacarbazine] (1000 nM)
4. CCCCCCCCCCCCCCCCCCOP(=O)([O-])OC1CC[N+](C)(C)CC1 [Perifosine] (250 nM)
5. CC(C)Cn1cnc2c(N)nc3ccccc3c21 [Imiquimod] (0.25 nM)
6. CN(C)/N=N/c1[nH]cnc1C(N)=O [Dacarbazine] (1 nM)
7. Cc1ccc(-n2nc(C(C)(C)C)cc2NC(=O)Nc2ccc(OCCN3CCOCC3)c3ccccc23)cc1 [Doramapimod] (10 nM)
8. CO[C@H]1/C=C\C=C(/C)C(=O)NC2=CC(=O)C(NCCN(C)C)=C(C[C@@H](C)C[C@H](OC)[C@H](O)[C@@H](C)/C=C(\C)[C@@H]1OC(N)=O)C2=O [Alvespimycin] (100 nM)

1. 97.1
2. 87.6
3. 105
4. 93.7
5. 100
6. 103
7. 89.5
8. 39.9

# batch: return normalised response for each of the 3 compounds below
1. CCC1(c2ccc(N)cc2)CCC(=O)NC1=O (stereo unspecified) [Aminoglutethimide] (10 nM)
2. CN[C@@H]1C[C@H]2O[C@@](C)([C@@H]1OC)n1c3ccccc3c3c4c(c5c6ccccc6n2c5c31)C(=O)N[C@H]4O [UCN-01] (10 nM)
3. O=P1(NCCCl)OCCCN1CCCl (stereo unspecified) [Ifosfamide] (1000 nM)

[101, 102, 92.5]

---

Tested on: HDQ-P1
experimental-protocol: normalised viability (% of control), CellTiter-Blue; higher = more viable cells (about 100 = DMSO control)
run-conditions: 3 nM; incubation time: 72 h
So I've got a bunch of compounds here, and I need their normalised viability values.
Numbers only, in %.

Below, each entry is followed by its recorded normalised viability result.
compound	u	normalised viability
Cc1ccc(C(=O)Nc2ccc(CN3CCN(C)CC3)c(C(F)(F)F)c2)cc1C#Cc1cnc2cccnn12	%	126
CCC1=C[C@@H]2CN(C1)Cc1c([nH]c3ccccc13)[C@@](C(=O)OC)(c1cc3c(cc1OC)N(C)[C@H]1[C@@](O)(C(=O)OC)[C@H](OC(C)=O)[C@]4(CC)C=CCN5CC[C@]31[C@@H]54)C2	%	95.3
C[C@]12CC[C@@H]3c4ccc(O)cc4C[C@@H](CCCCCCCCC[S+]([O-])CCCC(F)(F)C(F)(F)F)[C@H]3[C@@H]1CC[C@@H]2O (stereo partly drawn)	%	83.7
CN(N=O)C(=O)N[C@@H](C=O)[C@@H](O)[C@H](O)[C@H](O)CO	%	103

# batch: return normalised viability for each of the 4 compounds below
1. C[C@@H](Oc1cc(-c2cnn(C3CCNCC3)c2)cnc1N)c1c(Cl)ccc(F)c1Cl
2. Oc1nc(-c2ccc(C(F)(F)F)cc2)nc2c1CSCC2
3. CC(C)Cn1cnc2c(N)nc3ccccc3c21
4. O=C1CCC(N2C(=O)c3ccccc3C2=O)C(=O)N1 (stereo not drawn) [Thalidomide]

88.4
113
91.7
107

---

Test system: MDA-MB-436
experimental-protocol: normalised response (% of control), CellTiter-Glo; higher = more viable cells (100 = DMSO, 0 = benzethonium chloride kill control)
run-conditions: incubation time: 72 h
observed-property: normalised response (%)
Give bare numbers, in %.

Below, each entry is followed by its recorded normalised response result.
compound	u	number
C[C@]12CC[C@@H]3c4ccc(O)cc4C[C@@H](CCCCCCCCC[S+]([O-])CCCC(F)(F)C(F)(F)F)[C@H]3[C@@H]1CC[C@@H]2O (stereo partly specified) [Fulvestrant] (1000 nM)	%	105
CN(N=O)C(=O)N[C@@H](C=O)[C@@H](O)[C@H](O)[C@H](O)CO [Streptozocin] (10000 nM)	%	97.2
O=C(CCCCCCC(=O)Nc1ccc([C@H]2O[C@@H](CSc3nc(-c4ccccc4)c(-c4ccccc4)o3)C[C@@H](c3ccc(CO)cc3)O2)cc1)NO [Tubacin] (10000 nM)	%	57.5

# batch: return normalised response for each of the 5 compounds below
1. Clc1ccc(Nc2nnc(Cc3ccncc3)c3ccccc23)cc1 [Vatalanib] (10000 nM)
2. COc1cc2nccc(Oc3ccc(NC(=O)C4(C(=O)Nc5ccc(F)cc5)CC4)cc3)c2cc1OC [Cabozantinib] (1000 nM)
3. Oc1nc(-c2ccc(C(F)(F)F)cc2)nc2c1CSCC2 [XAV-939] (10000 nM)
4. CN[C@@H]1C[C@H]2O[C@@](C)([C@@H]1OC)n1c3ccccc3c3c4c(c5c6ccccc6n2c5c31)C(=O)N[C@H]4O [UCN-01] (10000 nM)
5. CN(C)/N=N/c1[nH]cnc1C(N)=O [Dacarbazine] (10000 nM)

1. 109
2. 101
3. 91.8
4. 7.46
5. 108

---

Tested on: HCC1937
experimental-protocol: normalised viability (% of control), CellTiter-Blue; higher = more viable cells (100 = DMSO, 0 = benzethonium chloride kill control)
run-conditions: incubation time: 72 h
observed-property: normalised viability

> print(dat)
                                   compound  result
1  NCC(=O)CCC(=O)O [Aminolevulinic acid] (1 nM)   79.4%
2  CN(C)/N=N/c1[nH]cnc1C(N)=O [Dacarbazine] (1 nM)    108%
3  Cc1ccc(-n2nc(C(C)(C)C)cc2NC(=O)Nc2ccc(OCCN3CCOCC3)c3ccccc23)cc1 [Doramapimod] (1 nM)     87%
4  CCC1(c2ccc(N)cc2)CCC(=O)NC1=O (stereo unspecified) [Aminoglutethimide] (1 nM)   97.3%
5  CC(=O)Nc1ccc(C(=O)Nc2ccccc2N)cc1 [CI-994] (0.1 nM)    102%

Now let's try a different one.
Consider the compound C[C@@H](Oc1cc(-c2cnn(C3CCNCC3)c2)cnc1N)c1c(Cl)ccc(F)c1Cl [Crizotinib] (1 nM) and give its measured normalised viability.
105%

---

So I've got a bunch of compounds here, and I need their drug sensitivity score values.
System: HCC1937
experimental-protocol: drug sensitivity score (DSS), CellTiter-Blue viability (DSS (AUC-based score)); higher = stronger viability inhibition; extreme values may be limits of the assay
run-conditions: incubation time: 72 h
Give bare numbers.

> print(dat)
                               entry.smiles       observed.property  number
1  CCN(CCCOc1ccc2c(Nc3cc(CC(=O)Nc4cccc(F)c4)[nH]n3)ncnc2c1)CCOP(=O)(O)O  drug sensitivity score    9.75
2  Cc1ccc(C(=O)N(CCCN)[C@@H](c2oc3cc(Cl)ccc3c(=O)c2Cc2ccccc2)C(C)C)cc1  drug sensitivity score    29.8
3  Cc1ccc(C(=O)Nc2ccc(CN3CCN(C)CC3)c(C(F)(F)F)c2)cc1C#Cc1cnc2cccnn12  drug sensitivity score       0

Recorded drug sensitivity score for `Cn1c(Nc2ccc(C(F)(F)F)cc2)nc2cc(Oc3ccnc(-c4ncc(C(F)(F)F)[nH]4)c3)ccc21` with HCC1937, please?
4.12

---

So I've got a bunch of compounds here, and I need their normalised viability values.
System: MDA-MB-231
experimental-protocol: normalised viability (% of control), CellTiter-Blue; higher = more viable cells (about 100 = DMSO control)
run-conditions: 100 nM; incubation time: 72 h
Numbers only, in %.

compound	normalised viability, %
CCC1=C[C@@H]2CN(C1)Cc1c([nH]c3ccccc13)[C@@](C(=O)OC)(c1cc3c(cc1OC)N(C)[C@H]1[C@@](O)(C(=O)OC)[C@H](OC(C)=O)[C@]4(CC)C=CCN5CC[C@]31[C@@H]54)C2	37.2
Clc1ccc(Nc2nnc(Cc3ccncc3)c3ccccc23)cc1	89.1
CCC1(c2ccc(N)cc2)CCC(=O)NC1=O (stereo unspecified) [Aminoglutethimide]	93.7
Oc1nc(-c2ccc(C(F)(F)F)cc2)nc2c1CSCC2	89.1

# batch: return normalised viability for each of the 2 compounds below
1. CNCc1ccc(-c2[nH]c3cc(F)cc4c3c2CCNC4=O)cc1
2. O=P1(NCCCl)OCCCN1CCCl (stereo unspecified) [Ifosfamide]

1: 98; 2: 108
